Tested on: KARN cells (Jurkat 2C4)
Assay: cells
Format: cell-based
Conditions: Homo sapiens, Jurkat, read-out: Karn EC50 (nM) 5% NHS, 5% normal human serum; luciferase induction, 100% = 2 μM SAHA
Protocol: KARN cells (Jurkat 2C4) were licensed from the laboratory of Dr. John Karn, Case Western Reserve University, School of Medicine. […] An atmosphere of 5% CO2 and 90% humidity was used for all culture work. […] Day 2: Cell Preparation: The next day, the cells were transferred from each T175 flask to an individual 50 ml conical tube and gently pelleted at 1000 rpm for 5 minutes. […] The cells were counted using the ViCell (Beckman Coulter) and diluted as necessary. […]
Assignment: determine reported EC50 for the given molecules.
Numbers only, in nM.

| molecule | EC50, nM |
| --- | --- |
| CCC(=O)CCCCC[C@H](NC(=O)C1CC12CCOCC2)c1ncc(-c2cc3ccc(C)nc3cc2OC)[nH]1 (single isomer, unassigned) [Compound 407] | 977 |
| CCC(=O)CCCCC[C@H](NC(=O)[C@H]1CC12CCN(C)CC2)c1ncc(-c2cnc3cccnc3c2)[nH]1 [Compound 259] | 8180 |
| CCC(=O)CCCCC[C@H](NC(=O)C1=NOC2(CCN(C)CC2)C1)c1ncc(-c2ccc(-c3ccncc3)cc2OC)o1 [Compound 395] | 725 |

Please report EC50 for every entry that follows.
1. CCC(=O)CCCCC[C@H](NC(=O)[C@H]1CC12CCCN(C)C2)c1ncc(-c2cc3ccccc3nc2OC)[nH]1 (stereo partly drawn) [Compound 286]
2. CCC(=O)CCCCC[C@H](NC(=O)[C@H]1CC12CCN(C)CC2)c1ncc(-c2cc3ccncc3cc2OC)o1 [Compound 405]
3. CCC(=O)CCCCC[C@H](NC(=O)C1=NOC2(CCN(S(C)(=O)=O)CC2)C1)c1ncc(-c2ccccc2)[nH]1 [Compound 383]

Response:
1: 406; 2: 57; 3: 3260

====

system: KARN cells (Jurkat 2C4); test: cells; type: cell-based; details: Homo sapiens, Jurkat, read-out: Karn EC50 (nM) 5% NHS, 5% normal human serum; luciferase induction, 100% = 2 μM SAHA
One threshold, 1000 nM, splits the recorded EC50 values: lower ones are true, equal or higher ones are false.

| molecule | system.tested | discrete.label |
| --- | --- | --- |
| CCC(=O)CCCCC[C@H](NC(=O)C1=NOC2(CCN(C)CC2)C1)c1ncc(-c2cc3cccnc3cc2OC)o1 | KARN cells (Jurkat 2C4) | true |
| CCC(=O)CCCCC[C@H](NC(=O)C1=NOC2(CCN(C)CC2)C1)c1ncc(-c2cc3ccc(C)nc3cc2F)[nH]1 | KARN cells (Jurkat 2C4) | true |
| CCC(=O)CCCCC[C@H](NC(=O)C1CC2(CCN(C)CC2)C1)c1ncc(-c2cc3ccccc3nc2OC)[nH]1 | KARN cells (Jurkat 2C4) | true |

Request: EC50 under 1000 nM? Item: `CCC(=O)CCCCC[C@H](NC(=O)[C@H]1C[C@]12CCN(C)C2)c1ncc(-c2cc3ccccc3nc2OC)[nH]1`
Response: true

Request: In plain terms, does `CCC(=O)CCCCC[C@H](NC(=O)C1=NOC2(CCN(C(C)C)CC2)C1)c1ncc(-c2ccccc2)[nH]1` come in under 1000 nM for EC50?
Response: true

Request: Field: below-cutoff. Rule: recorded EC50 strictly less than 1000 nM. Subject: `CCC(=O)CCCCC[C@H](NC(=O)[C@@H]1CC12CN(C)C2)c1ncc(-c2cc3ccccc3nc2OC)[nH]1`
Response: true

====

Target: HDAC6 (Homo sapiens, UniProt Q9UBN7)
Sequence (Q9UBN7 1-1215): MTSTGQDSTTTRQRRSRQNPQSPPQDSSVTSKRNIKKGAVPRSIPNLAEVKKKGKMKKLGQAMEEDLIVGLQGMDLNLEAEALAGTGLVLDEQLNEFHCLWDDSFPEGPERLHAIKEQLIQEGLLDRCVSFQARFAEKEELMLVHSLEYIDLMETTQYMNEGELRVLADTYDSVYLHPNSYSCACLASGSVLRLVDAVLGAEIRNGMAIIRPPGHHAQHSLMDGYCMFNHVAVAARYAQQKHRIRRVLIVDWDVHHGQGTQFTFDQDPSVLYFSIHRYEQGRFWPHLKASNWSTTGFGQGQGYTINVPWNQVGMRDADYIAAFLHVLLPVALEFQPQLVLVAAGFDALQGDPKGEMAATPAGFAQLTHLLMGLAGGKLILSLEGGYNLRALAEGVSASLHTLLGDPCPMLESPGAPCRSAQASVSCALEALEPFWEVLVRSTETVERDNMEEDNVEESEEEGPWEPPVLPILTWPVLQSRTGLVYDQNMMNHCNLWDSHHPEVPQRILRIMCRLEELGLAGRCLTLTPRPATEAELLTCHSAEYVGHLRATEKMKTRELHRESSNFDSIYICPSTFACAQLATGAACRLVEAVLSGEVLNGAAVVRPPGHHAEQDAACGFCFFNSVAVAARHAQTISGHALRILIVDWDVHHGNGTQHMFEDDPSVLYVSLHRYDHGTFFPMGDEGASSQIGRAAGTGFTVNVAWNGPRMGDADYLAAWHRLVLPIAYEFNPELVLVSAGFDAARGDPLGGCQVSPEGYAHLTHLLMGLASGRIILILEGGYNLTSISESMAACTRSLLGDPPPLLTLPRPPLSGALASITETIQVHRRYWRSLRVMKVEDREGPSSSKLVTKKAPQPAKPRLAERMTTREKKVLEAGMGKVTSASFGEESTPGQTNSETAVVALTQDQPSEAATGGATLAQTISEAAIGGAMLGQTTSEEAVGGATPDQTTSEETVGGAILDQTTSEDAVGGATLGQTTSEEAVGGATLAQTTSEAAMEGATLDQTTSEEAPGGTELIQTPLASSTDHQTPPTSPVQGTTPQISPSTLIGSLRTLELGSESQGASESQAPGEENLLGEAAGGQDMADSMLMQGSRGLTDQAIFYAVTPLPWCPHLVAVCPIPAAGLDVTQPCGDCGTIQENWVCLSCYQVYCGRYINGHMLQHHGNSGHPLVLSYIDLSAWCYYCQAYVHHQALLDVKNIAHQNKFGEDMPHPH
Test: Human HDAC enzyme inhibitor Fluor-de-Lys assay, HDAC6
Type: biochemical
Conditions: HDAC6, Fluor-de-Lys assay
Please go through the items and note down their IC50.
Numbers only, in nM.

| query.smiles | IC50 / nM |
| --- | --- |
| CCC(=O)CCCCC[C@H](NC(=O)[C@H]1CC12CCN(C)CC2)c1[nH]c(-c2ccc(F)cc2)nc1Cl | 38400 |

Could you now look at the following compound, please?
Request: Provide only the value of recorded IC50 for `CCC(=O)CCCCC[C@H](NC(=O)[C@H]1CC12CCN(C)CC2)c1ncc(-c2ccc3cnc(Cl)cc3c2)[nH]1`
Response: 1470

====

molecular target: UniProt Q9UBN7; assay: Human HDAC enzyme inhibitor Fluor-de-Lys assay, HDAC6; type: biochemical; details: HDAC6, Fluor-de-Lys assay
measurement.type: pIC50
Numbers only, as −log10 of the molar value.

Recorded pIC50, per entry:
| molecule | measurement.type | assay.value |
| --- | --- | --- |
| CCC(=O)CCCCC[C@H](NC(=O)[C@@H]1CC12CCN(C)CC2)c1ncc(-c2cc3ccccc3nc2OC)[nH]1 (single isomer, unassigned) | pIC50 | 6.15 |
| CCC(=O)CCCCC[C@H](NC(=O)C1=NOC2(CCN(C(C)C)CC2)C1)c1nnc(-c2cc3ccccc3nc2OC)o1 | pIC50 | 5.60 |
| CCC(=O)CCCCC[C@H](NC(=O)[C@H]1CC12CCN(CC(F)(F)F)CC2)c1ncc(-c2cc3ccccc3nc2OC)[nH]1 | pIC50 | 5.96 |
| CCC(=O)CCCCC[C@H](NC(=O)[C@@H]1C[C@@]12CCN(C)C2)c1ncc(-c2cc3ccccc3nc2OC)[nH]1 | pIC50 | 6.20 |

Request: Please supply the value of reported pIC50 for the item `CCC(=O)CCCCC[C@H](NC(=O)[C@H]1CC12CCN(C)CC2)c1ncc(-c2ccc3c(c2)c2ccccc2n3C)[nH]1`
Response: 6.20

====

Could you please report measured IC50 for the items listed next?
target: Recombinant human HDAC3/SMRT heterodimer (Homo sapiens, UniProt O15379); construct: FLAG (C); made in house; assay: Human HDAC enzyme inhibitor Fluor-de-Lys assay, HDAC3/SMRT; format: biochemical
Sequence (O15379 whole entry): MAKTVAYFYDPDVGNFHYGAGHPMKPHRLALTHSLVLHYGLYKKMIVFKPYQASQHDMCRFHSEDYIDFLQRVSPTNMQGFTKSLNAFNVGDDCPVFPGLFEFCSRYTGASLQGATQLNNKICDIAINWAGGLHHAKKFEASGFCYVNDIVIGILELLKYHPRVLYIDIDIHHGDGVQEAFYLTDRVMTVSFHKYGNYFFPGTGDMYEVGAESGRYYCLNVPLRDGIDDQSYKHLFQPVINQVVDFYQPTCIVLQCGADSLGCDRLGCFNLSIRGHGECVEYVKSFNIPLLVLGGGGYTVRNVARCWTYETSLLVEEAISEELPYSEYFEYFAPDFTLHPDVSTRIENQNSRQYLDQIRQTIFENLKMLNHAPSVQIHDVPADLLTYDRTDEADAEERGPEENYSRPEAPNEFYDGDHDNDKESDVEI
Sequence (Q9Y618 1-899 partner limits assumed): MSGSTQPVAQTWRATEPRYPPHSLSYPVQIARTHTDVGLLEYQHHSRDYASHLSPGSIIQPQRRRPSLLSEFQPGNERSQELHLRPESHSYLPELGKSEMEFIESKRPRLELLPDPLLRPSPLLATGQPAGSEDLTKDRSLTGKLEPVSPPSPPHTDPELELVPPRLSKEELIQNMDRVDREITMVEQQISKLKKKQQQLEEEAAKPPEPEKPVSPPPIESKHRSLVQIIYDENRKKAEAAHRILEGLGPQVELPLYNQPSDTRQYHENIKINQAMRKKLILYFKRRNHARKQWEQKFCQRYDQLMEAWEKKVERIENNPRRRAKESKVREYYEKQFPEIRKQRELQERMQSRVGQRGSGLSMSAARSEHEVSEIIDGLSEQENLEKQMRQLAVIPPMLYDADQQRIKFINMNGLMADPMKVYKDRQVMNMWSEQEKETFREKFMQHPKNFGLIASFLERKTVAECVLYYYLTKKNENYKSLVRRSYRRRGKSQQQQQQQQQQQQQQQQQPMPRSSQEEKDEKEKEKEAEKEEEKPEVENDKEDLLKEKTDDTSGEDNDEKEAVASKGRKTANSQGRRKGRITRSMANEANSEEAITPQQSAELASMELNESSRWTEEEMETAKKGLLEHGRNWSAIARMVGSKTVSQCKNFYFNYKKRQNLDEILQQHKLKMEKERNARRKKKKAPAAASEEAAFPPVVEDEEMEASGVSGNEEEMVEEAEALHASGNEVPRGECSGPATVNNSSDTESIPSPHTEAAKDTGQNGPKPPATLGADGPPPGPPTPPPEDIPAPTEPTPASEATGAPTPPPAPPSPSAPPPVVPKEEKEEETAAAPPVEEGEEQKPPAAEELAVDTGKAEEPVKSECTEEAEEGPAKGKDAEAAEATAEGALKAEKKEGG
Numbers only, in nM.

| molecule | unit.descriptor | IC50 |
| --- | --- | --- |
| CCC(=O)CCCCC[C@H](NC(=O)C1=NOC2(CCN(CC3CC3)CC2)C1)c1ncc(-c2cc3ccc(C)nc3cc2OC)[nH]1 | nM | 0.34 |

List reported IC50 for each of these molecules:
1. CCC(=O)CCCCC[C@H](NC(=O)[C@H]1CC12CCN(CC)CC2)c1ncc(-c2ccc3c(ccc(=O)n3C)c2)o1
2. CCC(=O)CCCCC[C@H](NC(=O)[C@H]1CC[C@]2(CC1)OC(=O)c1ncccc12)c1ncc(-c2cc3ccccc3nc2OC)[nH]1

Response:
[4.38, 1.98]
